Examples of binders with documented SPOT signal as a fraction of Bim BH3's signal on the same receptor and array follow.
- Test Target: T1, Mcl-1, Q07820
- T1 chain: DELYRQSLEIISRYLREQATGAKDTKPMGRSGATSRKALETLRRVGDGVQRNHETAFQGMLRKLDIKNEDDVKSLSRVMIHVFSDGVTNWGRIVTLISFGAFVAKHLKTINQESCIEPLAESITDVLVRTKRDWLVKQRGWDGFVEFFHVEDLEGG
- Procedure Details: peptide SPOT array, c-Myc-tagged receptor at 1 uM or 100 nM, anti-c-Myc-Cy3
Give the value as a plain number.

Guide cases for SPOT signal as a fraction of Bim BH3's signal on the same receptor and array, answers given:
INSERT INTO assay_data (binder, readout_value) VALUES
  ('VEQFSEASQQDAELSEVLVLRLENYE [HAP1]', 0.02),
  ('FRFAQLCGLHDVIHADELEELMCYYQ [CLTCL1]', 0.02),
  ('IGFFIAFGIAMGKMGDQAKLMVDFFN [SLC1A2]', 0.02),
  ('RDPQGWVAGNDSARGDGAAGFTLPGF [MST1R]', 0.02),
  ('HNATLILSEGLKRAGHQLQHDLFFDT [GLDC]', 0.02),
  ('TGSLCEIATTLSFELDGFLWVKSGSV [CRB1]', 0.04),
  ('DLLGMVVVDEDHMLGDSHRGYLLELL [POLQ]', 0.02),
  ('DFITALPARGLDHIAENILSYLDAKS [BTRC]', 0.02);

response.value for NPKNKTHACYLKELGEQFVVRANHQV [NWD1] (field: SPOT signal as a fraction of Bim BH3's signal on the same receptor and array) = 0.04

response.value for FDRAVVLSHYIHNLSSEMFSEFDKRY [PRL] (field: SPOT signal as a fraction of Bim BH3's signal on the same receptor and array) = 0.02
